Reference source: ChEMBL document CHEMBL4052815

Test system: PC-3
Test Summary: Cytotoxicity against human PC3 cells assessed as decrease in cell viability after 48 hrs by MTS assay
Type: functional
Particulars: PC-3, 48 h
Readout Name: CC50 (µM)
One number for each entry, in µM.

1) CCCCCCCCCCCCCCN: 24
2) CCCCCCCCCCCCCCCCOC[C@H](CO[C@@H]1O[C@H](CNCCCCCCCCCCCCN)[C@@H](O)[C@H](O)[C@H]1N)OC: 2
3) CCCCCCCCCCCCCCCCOC[C@H](CO[C@@H]1O[C@H](CN)[C@@H](O)[C@H](O)[C@H]1NCCCN)OC: 14.5
4) CCCCCCCCCCCCCCCCOC[C@H](CO[C@@H]1O[C@H](CO)[C@@H](O)[C@H](O)[C@H]1N)OC: 13.5
5) CCCCCCCCCCCCCCCCOC[C@H](CO[C@@H]1O[C@H](CN)[C@@H](O)[C@H](O)[C@H]1NCCCCCCCCCCCCN)OC: 8.5

# context switch: different compound, same CC50
Prompt: Name the recorded CC50 for `CCCCCCCCCCCCCCCCOC[C@H](CO[C@@H]1O[C@H](CNCCCN)[C@@H](O)[C@H](O)[C@H]1N)OC` .
Completion: 12.5

----------
Tested on: DU-145
Test Summary: Cytotoxicity against human DU145 cells assessed as decrease in cell viability after 48 hrs by MTS assay
Type: functional
Particulars: DU-145, 48 h
Readout Name: CC50

1) NCCCCCCCCCCCCO[C@@H]1O[C@H](CN)[C@@H](O)[C@H](O)[C@H]1N: > 20 µM

Dear colleague, could you please provide CC50 for the compounds listed below?
1. CCCCCCCCCCCCCCCCOC[C@H](CO[C@@H]1O[C@H](CO)[C@@H](O)[C@H](O)[C@H]1N)OC
2. CCCCCCCCCCCCCCCCOC[C@H](CO[C@@H]1O[C@H](CN)[C@@H](O)[C@H](O)[C@H]1NCCCN)OC
3. CCCCCCCCCCCCCCCCOC[C@H](CO[C@@H]1O[C@H](CNCCCCCCCCCCCCN)[C@@H](O)[C@H](O)[C@H]1N)OC
4. O=C(O)CCCc1ccc(N(CCCl)CCCl)cc1
5. CCCCCCCCCCCCCCCCOC[C@H](CO[C@@H]1O[C@H](CN)[C@@H](O)[C@H](O)[C@H]1NCCCCCCCCCCCCN)OC
6. CCCCCCCCCCCCCCCCOC[C@H](CO[C@@H]1O[C@H](CNCCCN)[C@@H](O)[C@H](O)[C@H]1N)OC

Completion:
["10 µM", "18.5 µM", "3.8 µM", "> 150 µM", "7.5 µM", "16.5 µM"]

Dear colleague, could you please provide CC50 for the compounds listed below?
1. CCCCCCCCCCCCCCN
2. CCCCCCCCCCCCCCCCOC[C@H](CO[C@@H]1O[C@H](CNCCCCCCCCCCCCNC(=O)CCCc2ccc(N(CCCl)CCCl)cc2)[C@@H](O)[C@H](O)[C@H]1N)OC.O=C(O)C(F)(F)F.O=C(O)C(F)(F)F

Completion:
["16.5 µM", "> 20 µM"]

----------
Tested on: MIA PaCa-2
Test Summary: Cytotoxicity against human MIAPaCa2 cells assessed as decrease in cell viability after 48 hrs by MTS assay
Format: functional
Particulars: MIA PaCa-2, 48 h
Readout Name: CC50 (µM)
Answers are plain numbers, in µM.

// solved cases for CC50 follow
1) CCCCCCCCCCCCCCCCOC[C@H](CO[C@@H]1O[C@H](CO)[C@@H](O)[C@H](O)[C@H]1N)OC: 9
2) CCCCCCCCCCCCCCCCOC[C@H](CO[C@@H]1O[C@H](CN)[C@@H](O)[C@H](O)[C@H]1NCCCCCCCCCCCCN)OC: 8.5
3) CCCCCCCCCCCCCCCCOC[C@H](CO[C@@H]1O[C@H](CNCCCCCCCCCCCCN)[C@@H](O)[C@H](O)[C@H]1N)OC: 4
4) CCCCCCCCCCCCCCCCOC[C@H](CO[C@@H]1O[C@H](CN)[C@@H](O)[C@H](O)[C@H]1NCCCN)OC: 14.5
5) CCCCCCCCCCCCCCN [TETRADECYLAMINE]: 18

# context switch: different compound, same CC50
Prompt: Name the recorded CC50 for `CCCCCCCCCCCCCCCCOC[C@H](CO[C@@H]1O[C@H](CNCCCN)[C@@H](O)[C@H](O)[C@H]1N)OC` .
Completion: 18.5

----------
System: PC-3
Test Summary: Cytotoxicity against human PC3 cells assessed as decrease in cell viability after 48 hrs by MTS assay
Assay type: functional
Particulars: PC-3, 48 h
Readout Name: CC50

// solved cases for CC50 follow
1. NCCCCCCCCCCCCO[C@@H]1O[C@H](CN)[C@@H](O)[C@H](O)[C@H]1N: > 20 µM
2. O=C(O)CCCc1ccc(N(CCCl)CCCl)cc1 [CHLORAMBUCIL]: > 150 µM

# context switch: different compound, same CC50
Prompt: # query: CC50 | item `CCCCCCCCCCCCCCCCOC[C@H](CO[C@@H]1O[C@H](CNCCCCCCCCCCCCNC(=O)CCCc2ccc(N(CCCl)CCCl)cc2)[C@@H](O)[C@H](O)[C@H]1N)OC.O=C(O)C(F)(F)F.O=C(O)C(F)(F)F` | system: PC-3
Completion: > 20 µM

----------
Tested on: MIA PaCa-2
Test Summary: Cytotoxicity against human MIAPaCa2 cells assessed as decrease in cell viability after 48 hrs by MTS assay
Assay type: functional
Particulars: MIA PaCa-2, 48 h
Readout Name: CC50

// solved cases for CC50 follow
1. O=C(O)CCCc1ccc(N(CCCl)CCCl)cc1: > 150 µM
2. NCCCCCCCCCCCCO[C@@H]1O[C@H](CN)[C@@H](O)[C@H](O)[C@H]1N: > 20 µM

# context switch: different compound, same CC50
Prompt: Name the recorded CC50 for `CCCCCCCCCCCCCCCCOC[C@H](CO[C@@H]1O[C@H](CNCCCCCCCCCCCCNC(=O)CCCc2ccc(N(CCCl)CCCl)cc2)[C@@H](O)[C@H](O)[C@H]1N)OC.O=C(O)C(F)(F)F.O=C(O)C(F)(F)F` .
Completion: > 20 µM
